Tested on: Botrytis cinerea
Test: Test B: tomato Botrytis, preventive spray on tomato seedlings, visual disease rating
Experimental parameters: tomato Botrytis; 100 = 100% disease control, 0 = no control relative to controls
Decide by Test B rating (% disease control): equal to or exceeding 90% means Y, less means N.

| Compound | Class |
| --- | --- |
| COc1cc(F)c(-c2c(C)nn(C)c2Oc2ccc(C)c(F)c2)c(F)c1 [compound 188] | N |
| Cc1nn(C)c(Nc2c(F)cc(F)cc2F)c1-c1ccccc1C(F)(F)F [compound 239] | Y |
| Cc1nn(C)c(Nc2cccc(F)c2F)c1-c1ccc(F)cc1F [compound 214] | Y |
| C=CCN(c1c(F)cc(OC)cc1F)c1c(-c2ccc(F)cc2Cl)c(C)nn1C [compound 159] | Y |
| Cc1nn(C)c(Oc2cc(C#N)c(C#N)cc2Cl)c1-c1ccc(F)cc1Cl [compound 150] | N |
| COc1cc(Oc2c(-c3c(F)cc(F)cc3F)c(C)nn2C)ccc1C [compound 217] | N |
